Data provenance is PubChem BioAssay (NCI).

Tested on: NCI-H226 lung
measurement notes: NCI-60 one-dose screen, 48 h
experimental setup: 10 µM unless noted
About 83,000 compounds went through this panel and 20% of them were active in at least one assay; those are over-represented in the sample as a whole. Activity calls are given as the source filed them. The calls were made as follows: active = growth percent below 10; inactive = the rest.
Possible outcomes: active, inactive

[
  {
    "molecule": "CC(C)CSc1ncnc2nc[nH]c12",
    "target system": "NCI-H226 lung",
    "category label": "inactive"
  },
  {
    "molecule": "CC1(C)CC[C@]2(C(N)=O)CC[C@]3(C)C(=CC[C@@H]4[C@@]5(C)C/C(=C/c6cccnc6)C(=O)C(C)(C)[C@@H]5CC[C@]43C)[C@@H]2C1",
    "target system": "NCI-H226 lung",
    "category label": "active"
  },
  {
    "molecule": "O=C1CC(c2ccccc2)Cc2nc3ccc(Cl)cc3cc21 (stereo not drawn)",
    "target system": "NCI-H226 lung",
    "category label": "inactive"
  },
  {
    "molecule": "COc1cc2c(c(OC)c1)C1c3cc(OC)ccc3NC(=O)N1CC2 (stereo not drawn)",
    "target system": "NCI-H226 lung",
    "category label": "inactive"
  },
  {
    "molecule": "COc1ccc(NC(=S)NNc2ccc(-c3ccc(OC)c(OC)c3)nn2)cc1",
    "target system": "NCI-H226 lung",
    "category label": "inactive"
  },
  {
    "molecule": "Cc1cc2c(C(C)C)c(O)c(O)c(C=NCc3ccoc3)c2c(O)c1-c1c(C)cc2c(C(C)C)c(O)c(O)c(C=NCc3ccco3)c2c1O",
    "target system": "NCI-H226 lung",
    "category label": "inactive"
  },
  {
    "molecule": "CC(C)C1=NOC(=O)C1=Cc1cn(-c2ccccc2)nc1-c1ccccc1",
    "target system": "NCI-H226 lung",
    "category label": "inactive"
  },
  {
    "molecule": "Cn1cc(-c2noc(-c3cn(C)c4ncc(Br)cc34)n2)c2cc(Cl)ccc21",
    "target system": "NCI-H226 lung",
    "category label": "inactive"
  },
  {
    "molecule": "CNC(=O)c1cc(Oc2cccc3nc(NC(=O)Nc4cc(C(F)(F)F)cc(C(F)(F)F)c4)ccc23)ccn1",
    "target system": "NCI-H226 lung",
    "category label": "inactive"
  },
  {
    "molecule": "C=C(C)C1CCC2(C(=O)O)CCC3(C)C(CCC4C5(C)CCC(OC(=O)NCc6ccccc6)C(C)(C)C5CCC43C)C12 (stereo not drawn)",
    "target system": "NCI-H226 lung",
    "category label": "inactive"
  },
  {
    "molecule": "Cc1ccc(NC(=O)N[C@@H](Cc2cc(F)cc(F)c2)C(=O)N[C@@H]2C(=O)N3CCC[C@H]3C(=O)N3CCOC[C@H]3C(=O)N[C@@H](C)C(=O)N3C[C@H](C)C[C@H]3C(=O)O[C@H]2C)cc1",
    "target system": "NCI-H226 lung",
    "category label": "inactive"
  },
  {
    "molecule": "CN(C)c1ccc(-c2ccc(-c3ccc(C(=N)N)cc3)s2)cc1",
    "target system": "NCI-H226 lung",
    "category label": "inactive"
  },
  {
    "molecule": "COc1cc(OC)cc(C(=O)Nc2cc(-c3cccnc3)nc(NCCCN3CCOCC3)n2)c1",
    "target system": "NCI-H226 lung",
    "category label": "inactive"
  },
  {
    "molecule": "CCOc1ccc(/C=C(\\C#N)c2cc3ccccc3[nH]2)cc1",
    "target system": "NCI-H226 lung",
    "category label": "inactive"
  },
  {
    "molecule": "CCOC(=O)c1c[nH]c2cc(OCC3CC3)c(OCC3CC3)cc2c1=O",
    "target system": "NCI-H226 lung",
    "category label": "inactive"
  },
  {
    "molecule": "CC1(C)NCCC[C@]2(C)[C@H]3C=CC4=C5C[C@](C)(CO)CC[C@]5(C)CC[C@@]4(C)[C@]3(C)CC[C@@H]12",
    "target system": "NCI-H226 lung",
    "category label": "active"
  },
  {
    "molecule": "Brc1ccc(-c2nnc3c4[nH]ccc4ncn23)cc1",
    "target system": "NCI-H226 lung",
    "category label": "inactive"
  },
  {
    "molecule": "COc1c(B(O)O)cccc1-c1nc2ccc3[nH]ncc3c2c2c1CCC2",
    "target system": "NCI-H226 lung",
    "category label": "inactive"
  }
]
